System: WT a-syn oligomers
assay.details: Luciferase PCA of WT a-syn oligomers
Format: cell-based, human
condition.summary: WT oligomers, luciferase activity, column 2
Oligomers % for assorted substances
Express the result in % but write the number alone.

In the examples that follow, each entry is paired with its recorded Oligomers %.
>  <substance>
EIERQLKALG [PDpep1.2]

>  <Oligomers % / %>
81.7556

$$$$
>  <substance>
IPIQLKA [PDpep1, initial screen hit peptide IPIQLKA]

>  <Oligomers % / %>
79.1738

$$$$
>  <substance>
DEEIERQLKALG [PDpep1.3]

>  <Oligomers % / %>
83.0465

$$$$

Okay, now this substance:
Req: Look up Oligomers % for this substance: IERQLKA [PDpep1.1]
Resp: 81.3253

====

Test system: WT a-syn oligomers
assay.details: Luciferase PCA of WT a-syn oligomers
Format: cell-based, human
condition.summary: WT oligomers, luciferase activity, column 4
Oligomers % for assorted substances
Please provide the amount together with its unit, number first.

>  <substance>
DEEIERQLKALG [PDpep1.3]

>  <recorded.endpoint>
Oligomers %

>  <result.value>
78.3132%

$$$$

Req: Request: Oligomers %, test system WT a-syn oligomers, entry EIERQLKALG [PDpep1.2]
Resp: 74.8709%

Req: Next up: IPIQLKA [PDpep1, initial screen hit peptide IPIQLKA]
Resp: 79.1738%

Req: Next up: IERQLKA [PDpep1.1]
Resp: 77.4527%

====

Tested on: A53T a-syn expressing HEK293 cells
assay.details: Cell Titer-Glo cell viability, A53T a-syn expressing cells
Assay type: cell-based, human
condition.summary: A53T a-syn; Supp Figure 1A; replicate 1
recorded.endpoint: cell viability effect of peptides
Please give the numeric answer without any surrounding text.

>  <substance>
EIERQLKALG [PDpep1.2]

>  <experimental.target>
A53T a-syn expressing HEK293 cells

>  <cell viability effect of peptides>
14600

$$$$
>  <substance>
IPIQLKA [PDpep1, initial screen hit peptide IPIQLKA]

>  <experimental.target>
A53T a-syn expressing HEK293 cells

>  <cell viability effect of peptides>
12800

$$$$
>  <substance>
IERQLKA [PDpep1.1]

>  <experimental.target>
A53T a-syn expressing HEK293 cells

>  <cell viability effect of peptides>
13600

$$$$

Okay, now this substance:
Req: Look up cell viability effect of peptides for this substance: DEEIERQLKALG [PDpep1.3]
Resp: 15000

====

Oligomers % for assorted substances
Tested on: WT a-syn oligomers
assay.details: Luciferase PCA of WT a-syn oligomers
Type: cell-based, human
condition.summary: WT oligomers, luciferase activity, column 1
Method: Oligonucleotides encoding the specific peptides were synthesized and individually cloned into the pLJM1 nGFP lentiviral vector. HEK293T cells were infected with individual constructs, and cell viability was assessed using Cell Titer-Glo luminescent assay (Promega) at 72 h post infection. Tet-off HEK293 cells stably expressing split luciferase-a-syn constructs and tet-off parent HEK293 cell lines were maintained in DMEM supplemented with 10% FBS and 1% pen/strep/glutamine. […]
Express the result in % but write the number alone.

In the examples that follow, each entry is paired with its recorded Oligomers %.
>  <substance>
IERQLKA [PDpep1.1]

>  <value.units>
%

>  <Oligomers %>
106.713

$$$$
>  <substance>
DEEIERQLKALG [PDpep1.3]

>  <value.units>
%

>  <Oligomers %>
99.8279

$$$$
>  <substance>
EIERQLKALG [PDpep1.2]

>  <value.units>
%

>  <Oligomers %>
104.991

$$$$

Okay, now this substance:
Req: Look up Oligomers % for this substance: IPIQLKA [PDpep1, initial screen hit peptide IPIQLKA]
Resp: 91.6523

====

Tested on: WT a-syn oligomers
assay.details: Luciferase PCA of WT a-syn oligomers
Assay type: cell-based, human
condition.summary: WT oligomers, luciferase activity, column 5
Oligomers % for assorted substances
Express the result in % but write the number alone.

Req: Look up Oligomers % for this substance: DEEIERQLKALG [PDpep1.3]
Resp: 63.6833

Req: Next up: EIERQLKALG [PDpep1.2]
Resp: 62.3924

Req: Next up: IPIQLKA [PDpep1, initial screen hit peptide IPIQLKA]
Resp: 65.4045

Req: Next up: IERQLKA [PDpep1.1]
Resp: 64.5439

====

System: A53T a-syn oligomers
assay.details: Luciferase PCA of A53T a-syn oligomers
Format: cell-based, human
condition.summary: replicate 3
recorded.endpoint: A53T a-syn oligomers as measured by luciferase activity
Please give the numeric answer without any surrounding text.

In the examples that follow, each entry is paired with its recorded A53T a-syn oligomers as measured by luciferase activity.
>  <substance>
EIERQLKALG [PDpep1.2]

>  <result.value>
251716

$$$$
>  <substance>
DEEIERQLKALG [PDpep1.3]

>  <result.value>
221562

$$$$
>  <substance>
IERQLKA [PDpep1.1]

>  <result.value>
271592

$$$$

Req: Look up A53T a-syn oligomers as measured by luciferase activity for this substance: IPIQLKA [PDpep1, initial screen hit peptide IPIQLKA]
Resp: 261396

====

System: A53T a-syn oligomers
assay.details: Luciferase PCA of A53T a-syn oligomers
Type: cell-based, human
condition.summary: replicate 1
A53T a-syn oligomers as measured by luciferase activity for assorted substances
Please give the numeric answer without any surrounding text.

In the examples that follow, each entry is paired with its recorded A53T a-syn oligomers as measured by luciferase activity.
>  <substance>
DEEIERQLKALG [PDpep1.3]

>  <result.value>
222198

$$$$
>  <substance>
IPIQLKA [PDpep1, initial screen hit peptide IPIQLKA]

>  <result.value>
221224

$$$$
>  <substance>
IERQLKA [PDpep1.1]

>  <result.value>
261554

$$$$

Okay, now this substance:
Req: Look up A53T a-syn oligomers as measured by luciferase activity for this substance: EIERQLKALG [PDpep1.2]
Resp: 251502

====

Cell viability for assorted substances
Test system: A53T a-syn expressing HEK293 cells
assay.details: Cell Titer-Glo cell viability, A53T a-syn expressing cells
Type: cell-based, human
condition.summary: A53T, MG132 10 μM, 72 h, replicate 1

Req: Look up Cell viability for this substance: IERQLKA [PDpep1.1]
Resp: 6400

Req: Next up: EIERQLKALG [PDpep1.2]
Resp: 7500

Req: Next up: IPIQLKA [PDpep1, initial screen hit peptide IPIQLKA]
Resp: 5500

Req: Next up: DEEIERQLKALG [PDpep1.3]
Resp: 8500

Taken from paper PMC10115881.
